Target: GAPDH (Homo sapiens)
Sequence (P04406 whole entry): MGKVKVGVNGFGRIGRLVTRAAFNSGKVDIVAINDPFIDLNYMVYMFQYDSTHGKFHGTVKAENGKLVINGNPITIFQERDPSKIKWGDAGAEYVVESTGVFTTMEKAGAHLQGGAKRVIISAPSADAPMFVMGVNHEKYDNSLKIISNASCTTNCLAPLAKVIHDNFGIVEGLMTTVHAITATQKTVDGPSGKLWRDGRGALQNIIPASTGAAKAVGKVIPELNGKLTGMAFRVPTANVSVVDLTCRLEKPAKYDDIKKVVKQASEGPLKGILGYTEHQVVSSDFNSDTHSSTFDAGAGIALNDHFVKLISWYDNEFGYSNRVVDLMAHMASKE
measurement-kind: Ki

| compound | reported-measurement |
| --- | --- |
| CCCc1c(O)c(O)c(C(=O)O)c2cc(Cc3ccccc3)c(C)cc12 [FX11] | > 300 µM |

---

Molecular target: purified human liver LDHA (Homo sapiens, UniProt P00338)

| compound | Ki |
| --- | --- |
| CCCc1c(O)c(O)c(C(=O)O)c2cc(C)c(C)cc12 [E, reference compound] | > 90 µM |
